The compounds listed here are annotated with their melting point.

{"columns": ["compound", "melting point"],
 "data": [
  ["Cn1cc(-c2ccc3nnc(C(F)(F)c4ccc5nc(NC(=O)C6CC6)cn5n4)n3c2)cn1", "275 °C"],
  ["CC(C)(S)C(=O)N[C@@H](CS)C(=O)O", "139 to 140 °C"],
  ["COc1cc(C=Cc2ccc(Cl)nn2)cc(OC)c1OC", "162 to 164 °C"],
  ["CCCCN(C(C)=O)C1NC(=O)N(c2ccc(OC(C)=O)cc2)C(=O)N1", "206 to 208 °C"],
  ["CCCCP(CCCC)(CCCC)=C1CC(=O)OC1=O", "70 °C"],
  ["CS(=O)c1n[nH]c2ccc(Cl)cc2c1=O (stereo unspecified)", "267 to 272 °C"],
  ["Fc1cc(Cl)ccc1-n1nc2c(c1Cl)CCCC2", "82 to 85 °C"],
  ["Cc1cccc(C(=O)C=C2CCCN2C)c1", "60 to 62 °C"],
  ["CCCCCCCCOc1ccc(-c2ccc(Br)cc2)cc1", "120 °C"],
  ["COc1ccc(-c2cc(CN3CCN(C)CC3)c(=O)n(CC=Cc3ccc(Cl)cc3)n2)cc1F", "124 to 126 °C"],
  ["CC(O)CCCCc1ccc(S(N)(=O)=O)s1 (stereo unspecified)", "75 to 76 °C"]
]}

src = a melting point compilation (Tetko et al.; mined from patent text by program, amines drawn as free bases though some values may be those of a salt)
